Assay: Nile Red efflux blockade in pump-expressing yeast – validation compound set, multiplex, phenotypic, pilot screen (AID 588506);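 also: Nile Red retained in cells so higher fluorescence means more efflux inhibition; 0 = negative control wells and 1 = enniatin B 25 µM full block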
Conditions: S. cerevisiae pump-expressing triplex, Nile Red efflux flow cytometry; at 10 µM; stronger effect = higher value; the pumps come from Candida albicans
Listed below: efflux inhibition (fraction of control) values for each entry.
Answer using only a numeral; do not append any unit.

As a guide, the following entries are already answered.
compound	endpoint.value
CC(C)Cc1ccc(C(C)C(=O)O)cc1 (centres undefined)	-0.17
CCc1ccc(CN(C)Cc2nc(Cc3ccccc3)no2)nc1	-0.04
c1coc(-c2nnc3n2C2(CCCC2)Cc2ccccc2-3)c1	-0.6
CN/C(=C/[N+](=O)[O-])NCCSCc1ccc(CN(C)C)o1	-0.42
O=C(/C=C/c1ccc2c(c1)OCO2)NCc1ccc(F)cc1	0.08

Challenge: Give a short answer stating reported efflux inhibition (fraction of control) for `CCOC(=O)C(=O)N1CCN(c2ccccc2OC)CC1` .
Response given: -0.125

Challenge: Fill in reported efflux inhibition (fraction of control) for this entry: `COc1cc(/C=C/C(=O)O)cc(S(=O)(=O)NCCCO)c1OC`
Response given: -0.13

Challenge: Tell me measured efflux inhibition (fraction of control) for `CN(C)c1ccc(Nc2c3c4c(cccc4n(C)c2=O)C(=O)c2ccccc2-3)cc1` please.
Response given: -0.17

Challenge: Let me know recorded efflux inhibition (fraction of control) for `COc1cccc(-n2c(C)c3c(OC)cccc(=O)c3c2C)c1` , thanks.
Response given: 0.12

----------
# GFP response vs DMSO listing for each entry below
Test: TOR pathway LAP4-GFP level changes – S. cerevisiae, multiplex flow cytometry, primary screen (AID 1873)
Details: S. cerevisiae LAP4-GFP expression, 3 h, at 10 µM, stronger effect = higher value
Results filed as inconclusive are left out.
Reply with just the number (in %).

Before answering, review these 5 worked examples.
compound	endpoint.value
Cc1ccc(CN2CCN(Cc3cn[nH]c3C3CCCCC3)CC2CCO)cc1 (stereo unspecified)	106
CCOC(=O)n1c(=O)oc2ccccc21	102
O=[N+]([O-])c1cccc2cn[nH]c12	91.3
CCOCC(=O)Nc1ccccc1C(=O)N1CCOCC1	88.6
COc1ccc(C(=O)CC2OC(=O)c3c2ccc(OC)c3OC)cc1 (stereo unspecified)	99.9

From here, focus on the item given below.
Challenge: Answer with the recorded GFP response vs DMSO of `Cc1cc(O)c2/c(=N\N)c(-c3csc(C)n3)coc2c1` only.
Response given: 106

----------
Assay: reduced mouse 2C T cell binding to pMHC/ICAM-1 vesicles – MLPCN validation set, flow cytometry, LFA-1/ICAM-1 modulator project, pilot screen (AID 2523)
Details: 2C mouse CD8+ T cells, at 7 µM, stronger effect = lower value; measured here: CD8+/vesicle+ event percentage
Criterion: double positive events strictly less than 60%. Met: condition met. Not met: condition not met.

These solved cases illustrate the format of a correct answer.
compound	assigned.category
CNc1c2c(nn1C)CCCC2	condition not met
O=c1ccc2c(o1)/C(=C/C=C(Cl)Cl)CCC2	condition met
CCN(CCCCOC(=O)c1ccc(OC)c(OC)c1)C(C)Cc1ccc(OC)cc1 (stereo not given)	condition not met

Challenge: Dear reviewer, please state whether Cc1nc(NC(CC(C)C)C(=O)O)c2nc(C)oc2n1 (stereo not given) has double positive events strictly beneath 60%.
Response given: condition met

Challenge: Identify whether the compound `Cc1ccccc1C(=O)Oc1ccc(Sc2ccc(O)cc2)cc1` records double positive events below 60%.
Response given: condition not met

Challenge: Quick check: does `O=C(O)CCCCCN=C1CCc2ccccc2N1` have double positive events under 60%?
Response given: condition not met

Challenge: Identify whether the compound `Cc1occc(=O)c1O` records double positive events below 60%.
Response given: condition not met

Challenge: Given the entry CC(C)CN1CCN(Cc2cccn2-c2ccccn2)CC1CCO (stereo not given) , would its reported double positive events be below 60%?
Response given: condition not met

Challenge: Here's an entry: `CN(C)CCOC(c1ccccc1)c1ccccc1` . Is its double positive events below 60%?
Response given: condition met

Challenge: API: query returns whether the compound falls strictly under 60% in double positive events. Query: `COc1cc(COc2ccc3c(C)c(Cc4ccccc4)c(=O)oc3c2)cc(OC)c1OC`
Response given: condition met

Challenge: Below 60% on double positive events? Entry `COc1ccc(CNC(=O)c2c(O)c3cccc4c3n(c2=O)CCC4)cc1`
Response given: condition met
